Test system: HT-29 colorectal adenocarcinoma cell line
Assay: Cytotoxicity, SRB assay, HT-29
Type: cell-based, human
Settings: Homo sapiens, HT-29, 96 h, read-out: IC50 HT-29
Endpoint: IC50 (µM)
The reply should contain only the number, in µM.

In: What IC50 value was documented for this molecule, C[C@](O)(COc1ccc(N=C=S)cc1)C(=O)Nc1ccc([N+](=O)[O-])c(C(F)(F)F)c1 [Compound V] ?
Out: 71

In: What IC50 value was documented for this molecule, C[C@](O)(COc1ccc(NC(=O)CCl)cc1)C(=O)Nc1ccc([N+](=O)[O-])c(C(F)(F)F)c1 [DJ 1-31] ?
Out: 3.7

In: What IC50 value was documented for this molecule, C[C@](O)(COc1ccc(NC(=O)CBr)cc1)C(=O)Nc1ccc([N+](=O)[O-])c(C(F)(F)F)c1 [DJ 1-29] ?
Out: 4.4
